Values compiled from patent US20140112930A1.

- Study System: T1, Dimeric Mouse Ang-2FD conjugated to human IgG1 (mouse (Mus musculus); human)
- T1 construct: also called Mouse Ang-2FD-hFc
- T1 sequence (chain, as listed by the source limits assumed): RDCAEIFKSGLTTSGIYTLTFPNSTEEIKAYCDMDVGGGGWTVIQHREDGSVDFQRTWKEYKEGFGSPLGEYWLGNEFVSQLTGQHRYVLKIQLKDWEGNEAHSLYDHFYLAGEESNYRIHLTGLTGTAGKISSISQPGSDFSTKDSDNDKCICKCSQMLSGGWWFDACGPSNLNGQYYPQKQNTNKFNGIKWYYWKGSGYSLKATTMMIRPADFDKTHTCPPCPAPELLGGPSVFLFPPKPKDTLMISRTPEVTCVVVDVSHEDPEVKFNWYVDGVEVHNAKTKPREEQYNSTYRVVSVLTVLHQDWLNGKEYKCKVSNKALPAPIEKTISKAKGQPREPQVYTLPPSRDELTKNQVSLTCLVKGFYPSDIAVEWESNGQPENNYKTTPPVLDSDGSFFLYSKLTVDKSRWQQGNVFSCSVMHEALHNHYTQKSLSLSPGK
- Experiment Description: SPR, captured Ab, RT
Assignment: determine reported T1/2 for the given binders.
Give bare numbers, in min.

Examples with their reported T1/2 follow.
H1M724N (antibody, V domains shown) VH: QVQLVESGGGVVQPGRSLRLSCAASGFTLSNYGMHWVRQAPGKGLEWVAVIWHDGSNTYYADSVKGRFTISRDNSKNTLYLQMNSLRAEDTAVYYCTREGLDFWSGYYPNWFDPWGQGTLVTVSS VL: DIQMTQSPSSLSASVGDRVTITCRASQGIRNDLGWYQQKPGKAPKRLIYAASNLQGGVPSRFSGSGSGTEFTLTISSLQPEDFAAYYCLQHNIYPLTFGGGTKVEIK = 16
H1H691P (antibody, V domains shown) VH: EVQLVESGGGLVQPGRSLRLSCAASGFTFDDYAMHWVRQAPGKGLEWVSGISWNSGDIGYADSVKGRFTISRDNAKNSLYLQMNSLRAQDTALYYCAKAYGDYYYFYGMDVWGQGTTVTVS VL: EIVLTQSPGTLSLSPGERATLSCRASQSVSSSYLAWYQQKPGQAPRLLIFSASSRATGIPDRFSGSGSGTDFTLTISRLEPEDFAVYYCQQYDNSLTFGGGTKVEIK = 43.8

Hello, I would appreciate it if you could give T1/2 for each entry below.
1. H1H706P (antibody, V domains shown) VH: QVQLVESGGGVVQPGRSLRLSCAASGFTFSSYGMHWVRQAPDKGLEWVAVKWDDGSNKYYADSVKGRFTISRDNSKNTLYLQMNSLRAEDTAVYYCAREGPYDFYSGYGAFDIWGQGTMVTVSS VL: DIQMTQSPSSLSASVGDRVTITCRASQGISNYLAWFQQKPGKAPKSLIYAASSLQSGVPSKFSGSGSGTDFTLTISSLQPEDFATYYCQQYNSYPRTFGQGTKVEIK
2. H1H744N (antibody, V domains shown) VH: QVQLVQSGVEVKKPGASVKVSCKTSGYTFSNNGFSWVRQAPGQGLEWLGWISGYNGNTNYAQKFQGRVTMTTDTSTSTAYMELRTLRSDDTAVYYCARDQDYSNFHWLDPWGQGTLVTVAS VL: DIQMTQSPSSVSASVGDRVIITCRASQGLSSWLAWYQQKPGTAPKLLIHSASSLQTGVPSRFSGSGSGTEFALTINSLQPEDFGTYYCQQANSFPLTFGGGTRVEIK
3. H1H704P (antibody, V domains shown) VH: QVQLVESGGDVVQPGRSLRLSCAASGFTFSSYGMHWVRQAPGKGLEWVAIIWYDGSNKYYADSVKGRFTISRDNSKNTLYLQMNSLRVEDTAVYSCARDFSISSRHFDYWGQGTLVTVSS VL: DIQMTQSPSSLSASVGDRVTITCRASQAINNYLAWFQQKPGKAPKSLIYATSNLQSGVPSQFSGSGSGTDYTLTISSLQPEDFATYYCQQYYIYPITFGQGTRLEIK

47
115
61.9
